- SYSTEM_TESTED: HLA-A*02:01 (Homo sapiens, UniProt P04439, D140Y/D185E/D98H/E176V/E277Q/G131W/G231S/I119V/I121R/I166T/I218V/L300P/L318F/N151K/N90K/P208A/P217A/Q86G/Q94H/R138H/R169H/T345S)
- TEST_PROTOCOL: MHC binding assay: UV-ligand exchange and β2m ELISA (peptide exchange yield, Table 7)
- MEASUREMENT_CONTEXT: binding of HLA-class I restricted peptides to HLA-A*02:01, UV-ligand exchange
PROPERTY_LABEL: Peptide exchange (MHC class I binding score, peptide exchange yield)

Illustrative cases are given below, each with its answer.
>  <SUBSTANCE>
234 (VLLNEILEQV; listed as Homo sapiens) [compound 234]

>  <RESULT>
++++ (≥75% = ++++)

$$$$
>  <SUBSTANCE>
92 (RLFEEVLGV; listed as Homo sapiens) [compound 92]

>  <RESULT>
++++ (≥75% = ++++)

$$$$
>  <SUBSTANCE>
106 (VLLGSVVIFA; listed as Homo sapiens) [compound 106]

>  <RESULT>
++ (≥20% = ++)

$$$$
>  <SUBSTANCE>
191 (AAIEIFEKV; listed as Homo sapiens) [compound 191]

>  <RESULT>
+++ (≥50% = +++)

$$$$
>  <SUBSTANCE>
60 (YLFSQGLQGL; listed as Homo sapiens) [compound 60]

>  <RESULT>
+++ (≥50% = +++)

$$$$
>  <SUBSTANCE>
283 (ALSELLQQV; listed as Homo sapiens) [compound 283]

>  <RESULT>
+++ (≥50% = +++)

$$$$
>  <SUBSTANCE>
218 (SLTGANITV; listed as Homo sapiens) [compound 218]

>  <RESULT>
+++ (≥50% = +++)

$$$$
>  <SUBSTANCE>
239 (VIIKGLEEITV; listed as Homo sapiens) [compound 239]

>  <RESULT>
+++ (≥50% = +++)

$$$$
>  <SUBSTANCE>
177 (ALINVLNAL; listed as Homo sapiens) [compound 177]

>  <RESULT>
+++ (≥50% = +++)

$$$$
>  <SUBSTANCE>
237 (ALLEQTGDMSL; listed as Homo sapiens) [compound 237]

>  <RESULT>
+++ (≥50% = +++)

$$$$

Field Peptide exchange (MHC class I binding score, peptide exchange yield) (entry 112 (ILAQDVAQL; listed as Homo sapiens) [compound 112] ) reads +++ (≥50% = +++)

Field Peptide exchange (MHC class I binding score, peptide exchange yield) (entry 124 (ALLLRLFTI; listed as Homo sapiens) [compound 124] ) reads ++ (≥20% = ++)

Field Peptide exchange (MHC class I binding score, peptide exchange yield) (entry 44 (AVFNLVHVV; listed as Homo sapiens) [compound 44] ) reads +++ (≥50% = +++)
